Assignment: determine reported IC50 for the given compounds.
Tested on: MCF7-F
Experiment Description: Antiproliferative activity in MCF7-F cells
Type: cell-based
Condition Summary: concentration required to inhibit cell proliferation by 50%
Kindly provide the numeric value in nM only, without the unit symbol.

Lookup: Given the compound "CN(C)C(=O)/C=C/CNCCOc1ccc(Oc2c(-c3ccc(F)cc3)sc3cc(O)ccc23)cc1" , write its reported IC50.
Found: 10.9

Lookup: Given the compound "CC/C(=C(/c1ccc(OCCNC/C=C/C(=O)N(C)C)cc1)c1ccc(B(O)O)cc1)c1ccccc1" , write its reported IC50.
Found: 29.9

Lookup: Given the compound C[C@]12CC[C@@H]3c4ccc(O)cc4C[C@@H](CCCCCCCCC[S+]([O-])CCCC(F)(F)C(F)(F)F)[C@H]3[C@@H]1CC[C@@H]2O (stereo partly drawn) [Fulvestrant, reference compound] , write its reported IC50.
Found: 533

====

Tested on: MCF7-TamR
Experiment Description: Antiproliferative activity in MCF7-TamR cells
Assay type: cell-based
Condition Summary: concentration required to inhibit cell proliferation by 50%
Measurement Name: IC50
Answer with the number, then the unit.

Lookup: Return reported IC50 for target or system MCF7-TamR, item CN(C)C(=O)/C=C/CNCCOc1ccc(Oc2c(-c3ccc(F)cc3)sc3cc(O)ccc23)cc1 [Compound 4] .
Found: 6.53 nM

Lookup: Return reported IC50 for target or system MCF7-TamR, item CC/C(=C(/c1ccc(OCCNC/C=C/C(=O)N(C)C)cc1)c1ccc(B(O)O)cc1)c1ccccc1 [Compound 1] .
Found: 11.8 nM

Lookup: Return reported IC50 for target or system MCF7-TamR, item C[C@]12CC[C@@H]3c4ccc(O)cc4C[C@@H](CCCCCCCCC[S+]([O-])CCCC(F)(F)C(F)(F)F)[C@H]3[C@@H]1CC[C@@H]2O (stereo partly drawn) [Fulvestrant, reference compound] .
Found: 9.84 nM
